Reference source for all entries: a melting point compilation (Tetko et al.)

parameter: melting point

[
  {
    "compound": "O=C(O)C(O)C(=O)O",
    "melting point": "157 °C"
  },
  {
    "compound": "CS(=O)(=O)c1ccc(C(C=O)C=O)c([N+](=O)[O-])c1",
    "melting point": "213 to 219 °C"
  },
  {
    "compound": "COc1ccc(C=O)cn1",
    "melting point": "46 to 54 °C"
  },
  {
    "compound": "Cc1cccc(C)c1NC(=O)C=CC(=O)O",
    "melting point": "169 °C"
  }
]

melting point in this record for CN(CCO)c1nc2c(c(=O)n(C)c(=O)n2C)n1C : 105 °C

melting point in this record for COC(=O)c1cccc([N+](=O)[O-])c1C(=O)OC : 69 °C

melting point in this record for CCCCCCCCCCCCCC=CC(O)C(CO)NC(=O)CCCCCCCCCCCCCCCCC (stereo unspecified) : 99 to 101 °C

melting point in this record for C=CC(=O)NCO : 74.5 °C

melting point in this record for COC(=O)c1sc(C(F)(F)F)c(-c2ccccc2)c1N : 119 to 120 °C
